- procedure.text: Determination of water solubility (excess complex in water, filtration, HPLC)
- Type: physicochemical
- measurement.context: 40 °C, thermodynamic from solid, content of active in filtrate by HPLC
reported.property: solubility (µg/mL)
Number in µg/mL, nothing else.

Q: Write down solubility measured for item C=C[C@@]1(C)CC(=O)[C@]2(O)[C@@]3(C)[C@@H](O)CCC(C)(C)[C@@H]3[C@H](O)[C@H](OC(C)=O)[C@@]2(C)O1 [FSK, forskolin]
Ans: 10
